ASSAY_SYSTEM: hChoKβ FL (Homo sapiens, UniProt Q9Y259)
Construct: hChoKβ full length (FL), corresponding to aminoacids 2-395; GST (N, cleaved yes); PreScission Protease recognition site (N); made in house; host or cells: Escherichia coli BL21pLysS (DE3)
Sequence (Q9Y259 2-395): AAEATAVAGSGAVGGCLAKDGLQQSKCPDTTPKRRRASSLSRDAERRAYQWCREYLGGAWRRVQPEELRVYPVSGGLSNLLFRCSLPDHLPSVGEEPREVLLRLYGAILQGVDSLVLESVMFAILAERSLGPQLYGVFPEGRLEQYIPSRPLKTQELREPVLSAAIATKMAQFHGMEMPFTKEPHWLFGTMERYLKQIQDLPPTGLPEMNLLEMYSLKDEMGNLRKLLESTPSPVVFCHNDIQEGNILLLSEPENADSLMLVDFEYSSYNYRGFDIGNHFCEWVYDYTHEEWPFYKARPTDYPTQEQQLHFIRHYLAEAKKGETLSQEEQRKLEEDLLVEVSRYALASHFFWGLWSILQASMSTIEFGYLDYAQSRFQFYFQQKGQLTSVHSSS
ASSAY_NAME: Biochemical kinase inhibition assay (Kinase-Glo luminescent) on hChoKβ FL
RUN_CONDITIONS: recombinant hChoKβ FL 30 nM, ATP 5 μM, choline 20 μM, 60 min rt; read-out: ChoKβ IC50

{"MOLECULE_SMILES": "CNc1ncc2c(n1)-c1c(c(C(=O)Nc3nc(CC(=O)N4CCC(N5CCC(C)CC5)CC4)cs3)nn1C)C(C)(C)C2", "QUALIFIER_OPERATOR": ">", "IC50, nM": 10000}
{"MOLECULE_SMILES": "CC1(C)Cc2cnc(N)nc2-c2[nH]nc(C(=O)Nc3ccc(OC(F)(F)F)cc3)c21", "QUALIFIER_OPERATOR": ">", "IC50, nM": 10000}
{"MOLECULE_SMILES": "Cc1csc(NC(=O)c2nn(C)c3c2C(C)(C)Cc2cnc(N)nc2-3)n1", "QUALIFIER_OPERATOR": ">", "IC50, nM": 10000}
{"MOLECULE_SMILES": "CC1(C)Cc2cnc(N)nc2-c2[nH]nc(C(=O)Nc3ccc(C(=O)NC4CCCC4)cc3)c21", "QUALIFIER_OPERATOR": "=", "IC50, nM": 71}
{"MOLECULE_SMILES": "CN1CCC(NC(=O)c2ccc(CNC(=O)c3n[nH]c4c3C(C)(C)Cc3cnc(N)nc3-4)cc2)CC1", "QUALIFIER_OPERATOR": "=", "IC50, nM": 134}
{"MOLECULE_SMILES": "CC1(C)Cc2cnc(N)nc2-c2[nH]nc(C(=O)Nc3ccc(C(=O)NC4CCCCC4)cc3)c21", "QUALIFIER_OPERATOR": "=", "IC50, nM": 63}
{"MOLECULE_SMILES": "CC1(C)Cc2cnc(N)nc2-c2[nH]nc(C(=O)Nc3ccc(C(=O)N4CCC(N5CCCCC5)CC4)cc3)c21", "QUALIFIER_OPERATOR": "=", "IC50, nM": 76}

---

ASSAY_SYSTEM: Δ49N-hChoKα (Homo sapiens, UniProt P35790)
Construct: cDNA fragment 362-1534, corresponding to aminoacids 50 457; GST (N, cleaved yes); PreScission Protease recognition site (N); made in house; host or cells: Escherichia coli BL21pLysS (DE3)
Sequence (P35790 50-439 isoform P35790-2): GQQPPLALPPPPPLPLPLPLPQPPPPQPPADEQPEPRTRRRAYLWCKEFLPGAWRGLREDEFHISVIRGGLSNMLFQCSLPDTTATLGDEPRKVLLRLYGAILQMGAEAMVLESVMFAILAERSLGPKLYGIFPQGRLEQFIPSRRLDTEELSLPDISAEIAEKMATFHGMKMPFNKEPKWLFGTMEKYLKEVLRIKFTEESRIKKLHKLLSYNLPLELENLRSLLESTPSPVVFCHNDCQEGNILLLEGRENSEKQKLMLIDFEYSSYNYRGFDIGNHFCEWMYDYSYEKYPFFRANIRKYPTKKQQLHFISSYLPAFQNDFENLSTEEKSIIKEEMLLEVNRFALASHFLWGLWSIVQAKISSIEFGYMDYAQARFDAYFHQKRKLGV
ASSAY_NAME: Biochemical kinase inhibition assay (Kinase-Glo luminescent) on Δ49N-hChoKα
RUN_CONDITIONS: recombinant Δ49N-hChoKα 2.2 nM, ATP 5 μM, choline 5 μM, 60 min rt; read-out: ChoKα IC50
Protocol: […] The biochemical activity of compounds against Δ49N-ChoKα and ChoK3 FL were determined using the Kinase-Glo™ Luminescent Kinase Assay (Promega cat. V6711). The assay is based on incubation of the recombinant Δ49N-hChoKα and hChoKβ FL produced in house, 2.2 nM and 30 nM, respectively, with the specific substrates, choline (Sigma-Aldrich-C7017) and ATP, followed by quantification, at the end of reaction time, of the residual not reacted ATP. […]
Entry class follows IC50: band 1 = under 20 nM, band 2 = from 20 nM up to 200 nM, band 3 = 200 nM and over

{"MOLECULE": "CC1CCN(C2CCN(C(=O)Cc3csc(NC(=O)c4nn(C)c5c4CC(C)(C)c4cnc(N)nc4-5)n3)CC2)CC1 [compound 225]", "LABEL_CLASS": "band 1"}
{"MOLECULE": "CN(C)C1CCN(C(=O)Cc2cccc(NC(=O)c3n[nH]c4c3C(C)(C)Cc3cnc(N)nc3-4)c2)CC1 [compound 146]", "LABEL_CLASS": "band 2"}
{"MOLECULE": "CC1(C)Cc2cnc(N)nc2-c2[nH]nc(C(=O)Nc3nc4ccccc4s3)c21 [compound 62]", "LABEL_CLASS": "band 2"}
{"MOLECULE": "CC1CCN(C2CCN(C(=O)Cc3csc(NC(=O)c4c5c(nn4C)-c4nc(N)ncc4CC5(C)C)n3)CC2)CC1 [compound 211]", "LABEL_CLASS": "band 2"}
{"MOLECULE": "CNC(=O)c1nn(C)c2c1C(C)(C)Cc1cnc(N)nc1-2 [Ref. cpd 2, reference compound]", "LABEL_CLASS": "band 3"}
{"MOLECULE": "CC1(C)CCCN(C2CCN(C(=O)Cc3csc(NC(=O)c4n[nH]c5c4C(C)(C)Cc4cnc(N)nc4-5)n3)CC2)C1 [compound 219]", "LABEL_CLASS": "band 1"}
{"MOLECULE": "Cn1nc(C(=O)Nc2nc(CC(=O)N3CCC(N4CCCCC4)CC3)cs2)c2c1-c1nc(N)ncc1CC2(C)C [compound 108]", "LABEL_CLASS": "band 1"}
{"MOLECULE": "CN1CCC(NC(=O)c2cccc(NC(=O)c3n[nH]c4c3C(C)(C)Cc3cnc(N)nc3-4)c2)CC1 [compound 10]", "LABEL_CLASS": "band 2"}
{"MOLECULE": "CC1(C)Cc2cnc(N)nc2-c2[nH]nc(C(=O)Nc3nc(CC(=O)NC4CCCCC4)cs3)c21 [compound 35]", "LABEL_CLASS": "band 2"}
{"MOLECULE": "CC1(C)Cc2cnc(N)nc2-c2[nH]nc(C(=O)Nc3nc(COC4CCN(C5CCCCC5)CC4)cs3)c21 [compound 157]", "LABEL_CLASS": "band 1"}
{"MOLECULE": "CC1(C)Cc2cnc(N)nc2-c2[nH]nc(C(=O)Nc3nc(CC(=O)N4CC[C@H](O)C4)cs3)c21 [compound 88]", "LABEL_CLASS": "band 2"}
{"MOLECULE": "CC1(C)Cc2cnc(N)nc2-c2[nH]nc(C(=O)Nc3ccc(C(=O)N4CCC(N)CC4)cc3)c21 [compound 49]", "LABEL_CLASS": "band 3"}
{"MOLECULE": "CC1(C)Cc2cnc(N)nc2-c2[nH]nc(C(=O)Nc3nc(COC4CCN(Cc5ccccc5)CC4)cs3)c21 [compound 213]", "LABEL_CLASS": "band 1"}
{"MOLECULE": "Cc1nc(NC(=O)c2n[nH]c3c2C(C)(C)Cc2cnc(N)nc2-3)sc1C(=O)N1CCC(N2CCCCC2)CC1 [compound 78]", "LABEL_CLASS": "band 3"}
{"MOLECULE": "COc1ccc2nc(NC(=O)c3n[nH]c4c3C(C)(C)Cc3cnc(N)nc3-4)sc2c1 [compound 63]", "LABEL_CLASS": "band 2"}
{"MOLECULE": "CC1(C)Cc2cnc(N)nc2-c2[nH]nc(C(=O)Nc3nc(CC(=O)N4CCC(N5CCCC5)CC4)cs3)c21 [compound 37]", "LABEL_CLASS": "band 1"}
{"MOLECULE": "CC1(C)Cc2cnc(N)nc2-c2[nH]nc(C(=O)Nc3nc(C(=O)NC4CCCCC4)cs3)c21 [compound 68]", "LABEL_CLASS": "band 2"}
{"MOLECULE": "CC1(C)Cc2cnc(N)nc2-c2[nH]nc(C(=O)Nc3ccc(OC(F)(F)F)cc3)c21 [compound 3]", "LABEL_CLASS": "band 3"}
{"MOLECULE": "CC1(C)Cc2cnc(N)nc2-c2[nH]nc(C(=O)Nc3nc(CC(=O)N4CCC(N5CCCCC5)CC4)cs3)c21 [compound 39]", "LABEL_CLASS": "band 1"}
{"MOLECULE": "CC1(C)Cc2cnc(N)nc2-c2[nH]nc(C(=O)Nc3ccc(C(=O)N4CCC(NC(=O)CCCO)CC4)cc3)c21 [compound 53]", "LABEL_CLASS": "band 3"}
{"MOLECULE": "CC1(C)Cc2cnc(N)nc2-c2[nH]nc(C(=O)Nc3ncc(Cl)s3)c21 [compound 66]", "LABEL_CLASS": "band 3"}
{"MOLECULE": "CC1(C)Cc2cnc(N)nc2-c2[nH]nc(C(=O)Nc3ccc(C(=O)Nc4ccc(CN5CCCCC5)cc4)cc3)c21 [compound 59]", "LABEL_CLASS": "band 2"}
